- Test system: Fer (mouse);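 further: 11-residue human phosphosite peptides and single-mutation variants displayed on the E. coli surface, counted by deep sequencing, each peptide's frequency after selection divided by its frequency in the unselected input library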;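 further: frequency after pTyr selection over input frequency; kinase dosed for 20-30% of maximal phosphorylation in three min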
- ASSAY INFO: phosphorylation enrichment, bacterial display (enrichment ratio); higher = better substrate or ligand; peptides without Tyr show the background
Respond with Met for phosphorylation enrichment values of 0.6 and above, Not met for values below.

Query :: Quick check: does TILEHYRRTHC [MYBPC3_Y1119_V1115I] have phosphorylation enrichment greater than or equal to 0.6?
Result :: Not met

Query :: Does phosphorylation enrichment meet or surpass 0.6 for FEEDSYVTRSQ [RET_Y905_K907T_YF] ?
Result :: Not met

Query :: Is phosphorylation enrichment at least 0.6? Consider NFRTIYVNANE [KCNH2_Y475_T474I]
Result :: Not met

Query :: Given IIEDPYYGNDF [ACP1_Y132_S137F] , state whether its phosphorylation enrichment is at least 0.6.
Result :: Met

Query :: Determine whether measured phosphorylation enrichment meets or exceeds 0.6 for VTAALYGCLFE [BTD_Y536_R538C_YF]
Result :: Met

Query :: Is reported phosphorylation enrichment greater than or equal to 0.6 here: FDNPVCQKTTE [LDLR_Y828_Y828C]
Result :: Not met

Query :: Identify whether the reported phosphorylation enrichment of the following sequence is 0.6 or greater: LEVPLYKNGVK [CPS1_Y1069_A1065E]
Result :: Met

Query :: Can HTLMKYTDGDQ [PUS7L_Y94_I92M] be said to have phosphorylation enrichment at or above 0.6?
Result :: Met

Query :: Assess whether reported phosphorylation enrichment for ANAFIYVVQLP [L1CAM_Y420_YF] sits at 0.6 or higher.
Result :: Not met

Query :: Check if phosphorylation enrichment >= 0.6 (inclusive). Item: QNTVDYYDLYG [PTPN11_Y62_G60V]
Result :: Met

Query :: Determine whether this sequence has phosphorylation enrichment no lower than 0.6: CKRQFYLFKGK [RSPO4_Y112_YF]
Result :: Not met

Query :: Answer whether phosphorylation enrichment of KDFETYQSFQN [CTNND2_Y1157_P1159S_YF] is greater than or equal to 0.6.
Result :: Not met

The measurements presented in this section are drawn from the supplement of paper PMC10065799.
